Assignment: determine reported Ki for the given molecules.
# MEASURED TARGET: human growth hormone secretagogue receptor (hGHS-R1a) (Homo sapiens, UniProt Q92847)
# Sequence (Q92847 whole entry): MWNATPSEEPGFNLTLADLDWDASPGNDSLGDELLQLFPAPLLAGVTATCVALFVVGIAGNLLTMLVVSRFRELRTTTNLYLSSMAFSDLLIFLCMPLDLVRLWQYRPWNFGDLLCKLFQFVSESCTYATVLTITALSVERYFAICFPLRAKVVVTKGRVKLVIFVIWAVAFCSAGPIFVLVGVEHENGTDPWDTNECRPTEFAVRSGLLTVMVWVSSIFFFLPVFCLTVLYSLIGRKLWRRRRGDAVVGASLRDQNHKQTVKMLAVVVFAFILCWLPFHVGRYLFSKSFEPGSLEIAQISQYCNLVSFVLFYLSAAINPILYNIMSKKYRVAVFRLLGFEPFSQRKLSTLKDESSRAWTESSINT
# MEASUREMENT PROTOCOL: Competitive radioligand binding assay (ghrelin receptor), standard method A
# EXPERIMENTAL PARAMETERS: binding activity at the human ghrelin receptor, standard method A

Sample answers from the record:
{"MOLECULE": "C[C@@H]1CN[C@@H](C2CC2)C(=O)N(C)[C@H](C)C(=O)N[C@H]([C@@H](C)c2ccc(O)cc2)C(=O)NCCCc2ncccc2O1 [Compound 1082]", "VAL": "≤ 500 nM"}
{"MOLECULE": "C[C@@H]1CN[C@@H](C2CC2)C(=O)N(C)[C@H](C)C(=O)N[C@H]([C@@H](C)c2ccc(O)cc2)C(=O)NCCCc2ccccc2O1 [Compound 1068]", "VAL": "≤ 100 nM"}

Please state Ki for every molecule in the list that follows.
1. CC1CNC(C2CC2)C(=O)N(C)C(C)C(=O)NC(CC2CCCCC2)C(=O)NCCCC2CCCCC2O1 (mixture of isomers) [Compound 831]
2. C[C@@H]1CN[C@@H](C2CC2)C(=O)N(C)[C@H](C)C(=O)N[C@H](Cc2ccc(Cl)cc2)C(=O)NCCCc2ccccc2O1 [Compound 862]
3. CC(C)CC1NC(=O)C(C)N(C)C(=O)C(C2CCCCC2)NCCOc2cc(F)ccc2CCCNC1=O (stereo not drawn) [Compound 1112]
4. C[C@@H]1CN[C@@H](C2CC2)C(=O)N(C)[C@H](C)C(=O)N[C@H](Cc2ccc(O)cc2)C(=O)NCCCc2ccccc2O1 [Compound 989]

["≤ 1 nM", "≤ 10 nM", "≤ 1 nM", "≤ 100 nM"]
